Origin of the recorded values: patent US20230227838A1

molecular target: sim3-GFP (Arabidopsis thaliana) (UniProt P93002); experiment: sim3-GFP IP, LC-MS/MS
Sequence (P93002 other isoform, or with tags, fused parts or gaps): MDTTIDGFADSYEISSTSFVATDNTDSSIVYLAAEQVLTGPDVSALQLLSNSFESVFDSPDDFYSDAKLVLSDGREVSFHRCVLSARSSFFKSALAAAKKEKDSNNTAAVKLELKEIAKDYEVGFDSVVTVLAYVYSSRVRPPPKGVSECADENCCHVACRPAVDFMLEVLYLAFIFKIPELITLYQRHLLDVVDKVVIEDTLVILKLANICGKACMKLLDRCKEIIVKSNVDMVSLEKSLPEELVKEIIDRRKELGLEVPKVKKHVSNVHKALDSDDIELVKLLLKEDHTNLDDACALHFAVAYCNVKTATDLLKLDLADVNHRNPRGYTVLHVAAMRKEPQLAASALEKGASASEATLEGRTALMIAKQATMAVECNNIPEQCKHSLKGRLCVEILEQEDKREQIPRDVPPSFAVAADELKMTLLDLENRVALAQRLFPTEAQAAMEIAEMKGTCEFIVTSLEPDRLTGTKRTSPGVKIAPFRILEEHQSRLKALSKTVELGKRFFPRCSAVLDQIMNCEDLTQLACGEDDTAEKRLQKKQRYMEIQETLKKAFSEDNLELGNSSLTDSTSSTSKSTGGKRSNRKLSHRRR
readout-label: Normalized Fold Change: SA vs Mock (fold)
Dear colleague, please return just the value in fold, with no unit written.

Value of Normalized Fold Change: SA vs Mock reported for the binder MEK1 (protein, UniProt Q94A06 1-354, looked up) Mitogen-activated protein kinase kinase 1: MNRGSLCPNPICLPPLEQSISKFLTQSGTFKDGDLRVNKDGIQTVSLSEPGAPPPIEPLDNQLSLADLEVIKVIGKGSSGNVQLVKHKLTQQFFALKVIQLNTEESTCRAISQELRINLSSQCPYLVSCYQSFYHNGLVSIILEFMDGGSLADLLKKVGKVPENMLSAICKRVLRGLCYIHHERRIIHRDLKPSNLLINHRGEVKITDFGVSKILTSTSSLANSFVGTYPYMSPERISGSLYSNKSDIWSLGLVLLECATGKFPYTPPEHKKGWSSVYELVDAIVENPPPCAPSNLFSPEFCSFISQCVQKDPRDRKSAKELLEHKFVKMFEDSDTNLSAYFTDAGSLIPPLAN is 4.03
